Biological target: human MMP-9 (amino acids 107-446) (Homo sapiens, UniProt P14780)
Construct: human MMP-9 (amino acids 107-446); made in house
Sequence (P14780 107-446): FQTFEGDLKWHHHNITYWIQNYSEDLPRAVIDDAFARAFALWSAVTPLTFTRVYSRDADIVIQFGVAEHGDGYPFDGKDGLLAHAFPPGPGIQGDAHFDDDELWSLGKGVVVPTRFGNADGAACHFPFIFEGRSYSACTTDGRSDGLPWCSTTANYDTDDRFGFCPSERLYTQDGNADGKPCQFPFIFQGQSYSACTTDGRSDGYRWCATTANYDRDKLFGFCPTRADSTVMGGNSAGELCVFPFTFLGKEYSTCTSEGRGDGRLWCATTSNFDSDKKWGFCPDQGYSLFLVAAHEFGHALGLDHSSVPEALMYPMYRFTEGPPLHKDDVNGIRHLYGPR
Assay: MMP dose response assay for determining IC50, MMP-9
Format: biochemical
Details: recombinant enzyme, fluorescent-quench substrate 100 nM; read-out: MMP-9
pIC50: −log10 of the molar value.
PROPERTY: pIC50

Worked examples follow.
>  <COMPOUND>
CC(C)N[C@@H](CN(c1ccc(Oc2ccc(C(F)(F)F)cc2)cc1)S(C)(=O)=O)C(=O)NO [Example 58]

>  <pIC50>
8.63

$$$$
>  <COMPOUND>
Cc1ccc(Oc2ccc(N(C[C@H](C(=O)NO)N3CCOCC3)S(C)(=O)=O)cc2)cc1 [Example 28]

>  <pIC50>
6.53

$$$$

(P) Cc1ccc(Oc2ccc(N(C[C@H](N[C@H](C)c3ccccc3)C(=O)NO)S(C)(=O)=O)cc2)cc1 [Example 46]
(Q) Cc1ccc(Oc2ccc(N(C[C@H](NCc3ccccc3)C(=O)NO)S(C)(=O)=O)cc2)cc1 [Example 25]
(R) CS(=O)(=O)N(C[C@H](Nc1cccc(F)c1)C(=O)NO)c1ccc(Oc2ccc(C(F)(F)F)cn2)cc1 [Example 55]
(S) CC(C)N(CCNC(=O)OCc1ccccc1)[C@@H](CN(c1ccc(Oc2ccc(C(F)(F)F)cc2)cc1)S(C)(=O)=O)C(=O)NO [Example 68]
(T) CC(C)N1CCN([C@@H](CN(c2ccc(Oc3ccc(Cl)cc3)cc2)S(C)(=O)=O)C(=O)NO)CC1 [Example 91]
hey, can you rank those compounds up there by pIC50? biggest number first please Please reply with the labels ordered as requested. Many thanks.
P, T, Q, S, R

* * *

Target: human MMP-2 (amino acids 1-660) (Homo sapiens, UniProt P08253)
Construct: human MMP-2 (amino acids 1-660); made in house
Assay: MMP dose response assay for determining IC50, MMP-2
Assay type: biochemical
Conditions: recombinant enzyme, fluorescent-quench substrate 100 nM; read-out: MMP-2
PROPERTY: IC50 (nM)

>  <INPUT SMILES>
CN(O)C(=O)[C@H](CN(c1ccc(Oc2ccc(C(F)(F)F)cc2)cc1)S(C)(=O)=O)N1CCOCC1

>  <TARGET OF ASSAY>
human MMP-2 (amino acids 1-660) (Homo sapiens, UniProt P08253)

>  <IC50 [nM]>
447

$$$$

(1) CC(C)CC#Cc1ccc(N(C[C@@H](C(=O)NO)N2CCOCC2)S(C)(=O)=O)cc1
(2) CS(=O)(=O)N(C[C@@H](C(=O)NO)N1CCOCC1)c1ccc(Oc2ccc(Cl)cc2)cc1
Choose between 1 and 2 : whose measured IC50 value is numerically larger? Give the label of your selection.
1

* * *

Biological target: human MMP-2 (amino acids 1-660) (Homo sapiens, UniProt P08253)
Construct: human MMP-2 (amino acids 1-660); made in house
Sequence (P08253 110-660): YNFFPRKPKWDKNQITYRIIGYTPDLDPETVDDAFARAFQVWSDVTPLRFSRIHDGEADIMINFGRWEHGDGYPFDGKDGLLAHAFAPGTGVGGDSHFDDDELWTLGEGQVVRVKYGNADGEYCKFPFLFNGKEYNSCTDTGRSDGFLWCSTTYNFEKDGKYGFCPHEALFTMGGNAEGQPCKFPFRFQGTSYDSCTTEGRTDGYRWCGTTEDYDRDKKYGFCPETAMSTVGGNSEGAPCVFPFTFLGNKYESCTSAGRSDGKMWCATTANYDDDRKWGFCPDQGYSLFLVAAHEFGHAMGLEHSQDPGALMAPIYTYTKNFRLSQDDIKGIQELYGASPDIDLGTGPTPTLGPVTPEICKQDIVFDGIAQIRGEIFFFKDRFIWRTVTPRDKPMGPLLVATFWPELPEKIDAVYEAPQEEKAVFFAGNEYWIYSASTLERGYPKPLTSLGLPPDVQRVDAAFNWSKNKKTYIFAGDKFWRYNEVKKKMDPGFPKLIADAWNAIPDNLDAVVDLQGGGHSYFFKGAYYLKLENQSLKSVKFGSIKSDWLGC
Test: MMP dose response assay for determining IC50, MMP-2
Format: biochemical
Conditions: recombinant enzyme, fluorescent-quench substrate 100 nM; read-out: MMP-2
pIC50: −log10 of the molar value.
PROPERTY: pIC50

Examples with their reported pIC50 follow.
>  <INPUT SMILES>
CS(=O)(=O)N(C[C@H](NC(=O)C1CCOCC1)C(=O)NO)c1ccc(Oc2ccc(C(F)(F)F)cc2)cc1

>  <PROPERTY>
pIC50

>  <QUANTITATIVE RESULT>
6.08

$$$$
>  <INPUT SMILES>
Cc1ccc(Oc2ccc(N(C[C@H](NCc3cccnc3)C(=O)NO)S(C)(=O)=O)cc2)cc1

>  <PROPERTY>
pIC50

>  <QUANTITATIVE RESULT>
7.77

$$$$
>  <INPUT SMILES>
CS(=O)(=O)N(C[C@H](Nc1cccc(F)c1)C(=O)NO)c1ccc(Oc2ccc(C(F)(F)F)cn2)cc1

>  <PROPERTY>
pIC50

>  <QUANTITATIVE RESULT>
5.81

$$$$

(A) CC(C)CN(O)C(=O)[C@H](CN(c1ccc(Oc2ccc(C(F)(F)F)cc2)cc1)S(C)(=O)=O)N1CCOCC1
(B) Cc1ccc(Oc2ccc(N(C[C@H](NC3CCCC3)C(=O)NO)S(C)(=O)=O)cc2)cc1
// task: argmin of pIC50 over [ A , B ] Refer to your chosen item by its label in the answer.
A
(A: 6.58, B: 8.00)

(a) Cc1ccc(Oc2ccc(N(C[C@H](O)C(=O)NO)S(=O)(=O)Cc3ccncc3)cc2)cc1
(b) Cc1ccc(Oc2ccc(N(C[C@H](NCc3ccccc3)C(=O)NO)S(C)(=O)=O)cc2)cc1
For the pair a and b , which entry has the numerically smaller recorded pIC50? Please reply using the label of the selected record.
a
